Molecular target: PPARγ (Homo sapiens)
Sequence (P37231 238-503 limits assumed): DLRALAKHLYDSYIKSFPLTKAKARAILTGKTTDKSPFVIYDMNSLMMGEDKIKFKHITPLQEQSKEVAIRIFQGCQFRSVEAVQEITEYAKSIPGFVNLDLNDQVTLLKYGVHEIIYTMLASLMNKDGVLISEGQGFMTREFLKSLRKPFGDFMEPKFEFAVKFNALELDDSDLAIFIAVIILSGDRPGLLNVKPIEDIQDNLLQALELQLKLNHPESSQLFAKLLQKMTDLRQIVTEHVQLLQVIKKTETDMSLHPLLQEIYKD
Test: PPAR-gamma EC50, functional cell (transactivation) assay
Description: The following transfection assay methods are provided by way of example only. Compounds may be screened for functional potency in transient transfection assays in CV-1 cells for their ability to activate the PPAR subtypes (transactivation assay). […]
Recorded Endpoint: EC50

Sample answers from the record:
{"columns": ["Molecule", "EC50"],
 "data": [
  ["CC(C)(Oc1ccc(S(=O)(=O)N2CCN(c3cccc(C(F)(F)F)c3)CC2)cc1)C(=O)O", "1 to 100 µM"],
  ["Cc1cc(S(=O)(=O)N2CCN(c3ccccc3Cl)CC2)ccc1OC(C)(C)C(=O)O", "1 to 100 µM"],
  ["CC(C)(Oc1ccc(S(=O)(=O)N2CCN(c3ccccn3)CC2)cc1)C(=O)O", "> 100 µM"],
  ["Cc1cc(S(=O)(=O)N2CCN(c3cc(Cl)ccc3C)C(C)C2)ccc1OC(C)(C)C(=O)O (centres unmarked)", "> 100 µM"]
]}

# input for lookup
Task item: Which EC50 is reported with PPARγ (Homo sapiens) for this entry: Cc1cccc(N2CCN(S(=O)(=O)c3ccc(OC(C)(C)C(=O)O)cc3)CC2C)c1 (centres unmarked) ?
Reply: > 100 µM
